biological target: PDE1A (Homo sapiens, UniProt P54750); construct: purchased Reaction Biology Corporation, Malvern, Pa; assay: Phosphodiesterase enzyme screening assay, PDE1A; format: biochemical; details: ratio of IC50 values, PDE1A versus PDE9A2; value greater than 1 = greater selectivity for PDE9A2
Sequence (P54750 whole entry): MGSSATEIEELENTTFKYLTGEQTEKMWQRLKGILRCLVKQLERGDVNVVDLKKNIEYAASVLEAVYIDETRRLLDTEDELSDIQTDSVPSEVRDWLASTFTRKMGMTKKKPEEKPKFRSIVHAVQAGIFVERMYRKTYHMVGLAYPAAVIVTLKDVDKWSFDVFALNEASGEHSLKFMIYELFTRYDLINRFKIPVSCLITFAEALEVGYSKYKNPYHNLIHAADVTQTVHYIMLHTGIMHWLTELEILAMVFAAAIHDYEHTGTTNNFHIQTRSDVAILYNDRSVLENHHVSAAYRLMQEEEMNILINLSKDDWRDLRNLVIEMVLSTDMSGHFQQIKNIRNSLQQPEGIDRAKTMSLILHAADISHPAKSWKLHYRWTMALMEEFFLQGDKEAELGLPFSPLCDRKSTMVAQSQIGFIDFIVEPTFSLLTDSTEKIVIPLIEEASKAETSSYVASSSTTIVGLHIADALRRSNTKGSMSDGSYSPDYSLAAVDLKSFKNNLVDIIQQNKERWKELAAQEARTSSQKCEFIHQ
Label scheme for PDE1A selectivity (versus PDE9A2): lower than 200 is rule not met, 200 and above is rule met.

CC1CN(Cc2cnn(C)c2)CC1c1nn2c(C3CCOCC3)ncc2c(=O)[nH]1 (single isomer, unassigned; (+))
rule met

### Prompt Kindly determine if PDE1A selectivity (versus PDE9A2) recorded for CC1CN(Cc2ccc(-c3ccncc3)cc2)CC1c1nn2c(C3CCOCC3)ncc2c(=O)[nH]1 (single isomer, unassigned; (-)) is above or exactly 200.
### Response rule met

### Prompt Kindly determine if PDE1A selectivity (versus PDE9A2) recorded for Cc1cccnc1CN1CC(C)C(c2nn3c(C4CCOCC4)ncc3c(=O)[nH]2)C1 (single isomer, unassigned; (+)) is above or exactly 200.
### Response rule met

### Prompt Kindly determine if PDE1A selectivity (versus PDE9A2) recorded for CC1CN(Cc2ncccc2C(F)(F)F)CC1c1nn2c(C3CCOCC3)ncc2c(=O)[nH]1 (single isomer, unassigned; (+)) is above or exactly 200.
### Response rule not met

### Prompt Kindly determine if PDE1A selectivity (versus PDE9A2) recorded for C[C@@H]1CN(Cc2ncccn2)C[C@H]1c1nn2c(C3CCOCC3)ncc2c(=O)[nH]1 (relative stereo) [(+)-2-((3,4-trans)-4-] is above or exactly 200.
### Response rule met

### Prompt Kindly determine if PDE1A selectivity (versus PDE9A2) recorded for CC1CN(Cc2ccsc2)CC1c1nn2c(C3CCOCC3)ncc2c(=O)[nH]1 (single isomer, unassigned; (+)) is above or exactly 200.
### Response rule not met

### Prompt Kindly determine if PDE1A selectivity (versus PDE9A2) recorded for CC1CN(Cc2cccc(C(F)(F)F)n2)CC1c1nn2c(C3CCOCC3)ncc2c(=O)[nH]1 (single isomer, unassigned; (+)) is above or exactly 200.
### Response rule met

### Prompt Kindly determine if PDE1A selectivity (versus PDE9A2) recorded for COc1cc(CN2CC(C)C(c3nn4c(C5CCOCC5)ncc4c(=O)[nH]3)C2)ccn1 (single isomer, unassigned; (+)) is above or exactly 200.
### Response rule met

### Prompt Kindly determine if PDE1A selectivity (versus PDE9A2) recorded for CC1CN(Cc2ccc3nsnc3c2)CC1c1nn2c(C3CCOCC3)ncc2c(=O)[nH]1 (single isomer, unassigned; (+)) is above or exactly 200.
### Response rule met

### Prompt Kindly determine if PDE1A selectivity (versus PDE9A2) recorded for CC1CN(Cc2ccnn2C)CC1c1nn2c(C3CCOCC3)ncc2c(=O)[nH]1 (single isomer, unassigned; (+)) is above or exactly 200.
### Response rule met

Provenance of the data: patent US9969742B2
